# system_name: HLA-A*0201 (human, UniProt A*02:01)
# assay_summary: REVEAL MHC binding assay (ProImmune)
measurement_type: % Pass/fail control

Give the reported value of % Pass/fail control for this record: ILLWEIFSL [Peptide ID 3 ILLWEIFSL (FLT3)] 199 % of pass/fail control

Look up % Pass/fail control of LLMVFVALL [Peptide ID 121 LLMVFVALL (CD2)] and report it. 114 % of pass/fail control

Give the value of % Pass/fail control reported for the following: LLQRPGLQL [Peptide ID 126 LLQRPGLQL (CD64)] 231 % of pass/fail control

# return recorded % Pass/fail control for entry LIQPFMFRL [Peptide ID 84 LIQPFMFRL (MPO)] 311 % of pass/fail control

Please give measured % Pass/fail control of the following entry: TVQEGLCVL [Peptide ID 123 TVQEGLCVL (CD33)] 75.2 % of pass/fail control

Provide % Pass/fail control value for the following binder: LMGTLIAKV [Peptide ID 83 LMGTLIAKV (HA-1)] 316 % of pass/fail control

Give the reported % Pass/fail control for this binder. LLAEVTLAV (Modified peptide) [Peptide ID 147 LLAEVTLAV (CD53, modified peptide)] 254 % of pass/fail control

Provide % Pass/fail control value for the following binder: LLFLTPMEV [Peptide ID 108 LLFLTPMEV (CD19)] 283 % of pass/fail control

Kindly indicate its recorded % Pass/fail control. Item: WLSAAPTSL [Peptide ID 102 WLSAAPTSL (CD33)] 207 % of pass/fail control

Given the binder YLLDGILFI [Peptide ID 1 YLLDGILFI (TCR_TV)] , write its reported % Pass/fail control. 201 % of pass/fail control
